Provide the reported IC50 of each item.
# System: Jurkat cells
# Assay Explanation: MTT assay, Jurkat
# Assay type: cell-based, human
# Measurement Setup: 72 h, acute leukemia cell line, read-out: Cell lines IC50 [μM] Jurkat
Give bare numbers, in µM.

Examples from the recorded data:
- Compound: "CNc1nc(N2CC(c3ccc(-c4ccc5nc[nH]c5c4)cc3)C2C#N)nc2ccccc12 (centres unmarked) [Compound B9]"
  Endpoint Value: 3.17
- Compound: "CNc1nc(N2CC(c3ccc(-c4ccc5nc[nH]c5c4)cc3)C2C#N)nc2ccccc12 (centres unmarked) [Compound B10]"
  Endpoint Value: 11.2
- Compound: "CNc1nc(N2CC(c3ccc(-c4c(C)noc4C)cc3)C2C#N)nc2ccccc12 (centres unmarked)"
  Endpoint Value: 4.49

Let us move to another entry and its IC50.
## Task Request - read-out IC50 | tested on Jurkat cells | compound N#CC1C(c2ccc(-c3ccc(C(F)(F)F)cc3)cc2)C(CO)N1C(=O)c1sc2ncccc2c1N (centres unmarked)
## Result 3.35
